Assay: Half life in Sprague-Dawley rat at 3 mg/kg, po via gavage measured up to 24 hrs by LC-MS analysis
Assay type: ADME, organism-based
Conditions: in vivo
measured endpoint: half-life (min)
Write the number in min without appending the unit.

INSERT INTO measurements (molecule_smiles, reported_result) VALUES
  ('Nc1ncnc2[nH]cc(-c3cc(F)c(NC(=O)c4cn(CC5CCOCC5)cc(-c5ccc(F)cc5)c4=O)cc3F)c12', 82.2);

Now take the following compound into account.
[in] Which half-life value is on record for CC(C)n1cc(C(=O)Nc2cc(F)c(-c3c[nH]c4ncnc(N)c34)cc2F)c(=O)c(-c2ccc(F)cc2)c1 ?
[out] 164
